All figures here come from paper PMC7180572.

test system: Trichophyton interdigitale ATCC 9533, CCM 8377; assay: Antifungal microdilution broth method (EUCAST); format: cell-based; conditions: 72 h, read-out: MIC TI
MIC: recorded values

These recorded examples may help you get a feel for the data.
>  <SMILES TEXT>
CCCNc1cnc(C(=O)Nc2cccc(O)c2)cn1

>  <MEASUREMENT KIND>
MIC

>  <VAL>
> 125 µM

$$$$
>  <SMILES TEXT>
CCCCCCCNc1cnc(C(=O)Nc2ccc(CC)cc2)cn1

>  <MEASUREMENT KIND>
MIC

>  <VAL>
> 125 µM

$$$$
>  <SMILES TEXT>
CCCCCCNc1cnc(C(=O)Nc2cccc(C(F)(F)F)c2)cn1

>  <MEASUREMENT KIND>
MIC

>  <VAL>
> 500 µM

$$$$
>  <SMILES TEXT>
CCCCCNc1cnc(C(=O)Nc2ccc(C)cc2)cn1

>  <MEASUREMENT KIND>
MIC

>  <VAL>
> 125 µM

$$$$

// next item, MIC requested
Please report MIC for the following compound: "CCCCCCCCNc1cnc(C(=O)Nc2ccc(C)cc2)cn1"
> 125 µM

* * *

test system: Mycobacterium smegmatis DSM 43465 (ATCC 607); test: Microdilution broth, modified Microplate Alamar Blue Assay, whole cell growth inhibition; type: cell-based; conditions: Mycolicibacterium smegmatis; in vitro, Middlebrook 7H9 broth, resazurin; read-out: MIC Mycobacterium smegmatis
MEASUREMENT KIND: MIC (µg/mL)
Write the value in µg/mL as a bare number.

Enter MIC (test system Mycobacterium smegmatis DSM 43465 (ATCC 607)) for "CCCNc1cnc(C(=O)Nc2ccc(Cl)cc2O)cn1"
3.91

Fill in: MIC on Mycobacterium smegmatis DSM 43465 (ATCC 607), entry "CCCCNc1cnc(C(=O)Nc2ccc(Cl)cc2O)cn1"
3.91

* * *

system: Klebsiella pneumoniae ATCC 10031, CCM 4415; test: Antibacterial microdilution broth method (EUCAST); details: 24h
Listed compounds paired with reported MIC KP

# count of solved cases: 5
>  <COMPOUND>
CCCCCCCNc1cnc(C(=O)Nc2cccc(C(F)(F)F)c2)cn1 [Compound 1e]

>  <MIC KP>
> 500 µM

$$$$
>  <COMPOUND>
CCCCCCCCNc1cnc(C(=O)Nc2ccc(C)cc2)cn1 [Compound 4f]

>  <MIC KP>
> 125 µM

$$$$
>  <COMPOUND>
CCCCCCNc1cnc(C(=O)Nc2ccc(O)cc2)cn1 [Compound 3d]

>  <MIC KP>
> 500 µM

$$$$
>  <COMPOUND>
CCCCCCNc1cnc(C(=O)Nc2ccc(C)cc2)cn1 [Compound 4d]

>  <MIC KP>
> 500 µM

$$$$
>  <COMPOUND>
CCCCCCCNc1cnc(C(=O)Nc2ccc(C)cc2)cn1 [Compound 4e]

>  <MIC KP>
> 500 µM

$$$$

Please look at the following compound next.
Write down the reported MIC KP (system: Klebsiella pneumoniae ATCC 10031, CCM 4415) of CCCNc1cnc(C(=O)Nc2ccc(O)cc2)cn1 [Compound 3a]
> 500 µM

* * *

tested on: Candida parapsilosis ATCC 22019, CCM 8260; experiment: Antifungal microdilution broth method (EUCAST); format: cell-based; details: Lodderomyces parapsilosis, read-out: MIC CP (Candida parapsilosis)
MEASUREMENT KIND: MIC (µM)
Value expressed in µM; do not type the unit.

>  <SMILES TEXT>
CCCCNc1cnc(C(=O)Nc2ccc(O)cc2)cn1

>  <VAL>
250

$$$$
>  <SMILES TEXT>
CCCCCNc1cnc(C(=O)Nc2cccc(C(F)(F)F)c2)cn1

>  <VAL>
125

$$$$

Now look at this entry.
// output MIC; input "CCCCCCNc1cnc(C(=O)Nc2ccc(C)cc2)cn1" ; system Candida parapsilosis ATCC 22019, CCM 8260
125

* * *

test system: HepG2 cells; assay: HepG2 cytotoxicity, CellTiter 96 (MTS) assay; assay type: cell-based, human; conditions: IC50 (HepG2)/MIC against Mtb H37Ra (in µM)
Reported SI, selectivity index values are given for each entry in this list.

Solved entries:
>  <COMPOUND>
CCCCCCCNc1cnc(C(=O)Nc2ccc(O)cc2)cn1 [Compound 3e]

>  <VAL>
3.76

$$$$
>  <COMPOUND>
CCCNc1cnc(C(=O)Nc2ccc(C)cc2)cn1 [Compound 4a]

>  <VAL>
>1.73

$$$$
>  <COMPOUND>
CCCCCCNc1cnc(C(=O)Nc2ccc(C)cc2)cn1 [Compound 4d]

>  <VAL>
>10.01

$$$$

Kindly review the next compound as well.
For the compound O=C(Nc1cccc(O)c1)c1cnc(Cl)cn1 [Compound 2] , report SI, selectivity index.
>3.99

* * *

tested on: Aspergillus flavus CCM 8363; test: Antifungal microdilution broth method (EUCAST); assay type: cell-based; conditions: CCM8363, 24 h, read-out: MIC AFla
MEASUREMENT KIND: MIC

Some compounds with recorded MIC:
>  <COMPOUND>
CCCCCCCCNc1cnc(C(=O)Nc2cccc(C(F)(F)F)c2)cn1 [Compound 1f]

>  <MIC>
> 500 µM

$$$$
>  <COMPOUND>
CCCNc1cnc(C(=O)Nc2ccc(O)cc2)cn1 [Compound 3a]

>  <MIC>
> 500 µM

$$$$

Check Aspergillus flavus CCM 8363 data and give MIC for CCCCCCCNc1cnc(C(=O)Nc2ccc(CC)cc2)cn1 [Compound 5e] .
> 125 µM

Give the observed MIC of CCCNc1cnc(C(=O)Nc2cccc(O)c2)cn1 [Compound 2a] for Aspergillus flavus CCM 8363.
> 125 µM

Please tell me the measured MIC for CCCCCCNc1cnc(C(=O)Nc2cccc(C(F)(F)F)c2)cn1 [Compound 1d] ; system: Aspergillus flavus CCM 8363.
> 500 µM

Write down the reported MIC (system: Aspergillus flavus CCM 8363) of CCCCCCNc1cnc(C(=O)Nc2ccc(CC)cc2)cn1 [Compound 5d]
> 125 µM

// fetch MIC for CCCCNc1cnc(C(=O)Nc2cccc(C(F)(F)F)c2)cn1 [Compound 1b] ; system: Aspergillus flavus CCM 8363
> 125 µM

* * *

The reader will find reported MIC values listed item by item below.
test system: Pseudomonas aeruginosa ATCC 27853, CCM 3955; assay: Antibacterial microdilution broth method (EUCAST); type: cell-based; conditions: 120 h, read-out: MIC PA

>  <SMILES TEXT>
CCCNc1cnc(C(=O)Nc2cccc(O)c2)cn1

>  <TARGET OR TEST SYSTEM>
Pseudomonas aeruginosa ATCC 27853, CCM 3955

>  <MIC>
> 125 µM

$$$$

Identify the reported MIC for the following entry. "CCCCCCCCNc1cnc(C(=O)Nc2cccc(C(F)(F)F)c2)cn1"
> 500 µM

Annotate the compound "CCCCNc1cnc(C(=O)Nc2cccc(C(F)(F)F)c2)cn1" with its measured MIC.
> 500 µM

Determine from records and report MIC for "CCCNc1cnc(C(=O)Nc2ccc(CC)cc2)cn1"
> 125 µM

Indicate its recorded MIC; the compound in question is "CCCCCCCNc1cnc(C(=O)Nc2ccc(O)cc2)cn1"
> 500 µM

For "CCCNc1cnc(C(=O)Nc2ccc(O)cc2)cn1" , write its MIC.
> 500 µM

Look up MIC of "CCCCCNc1cnc(C(=O)Nc2ccc(O)cc2)cn1" and report it.
> 125 µM

Identify the reported MIC for the following entry. "CCCCCCCNc1cnc(C(=O)Nc2ccc(CC)cc2)cn1"
> 500 µM

Indicate the recorded MIC value for this compound: "CCCCCCCNc1cnc(C(=O)Nc2ccc(C)cc2)cn1"
> 500 µM

Quick one: give measured MIC for "CCCCCCNc1cnc(C(=O)Nc2ccc(CC)cc2)cn1"
> 500 µM

* * *

system: Absidia corymbifera CCM 8077 (Lichtheimia corymbifera); assay: Antifungal microdilution broth method (EUCAST); format: cell-based; details: CCM8077, 24 h, read-out: MIC AC
List of MIC values.

Please review the entries below; each comes with its answer.
>  <SMILES TEXT>
CCCNc1cnc(C(=O)Nc2cccc(O)c2)cn1

>  <MIC>
> 125 µM

$$$$
>  <SMILES TEXT>
CCCCCCNc1cnc(C(=O)Nc2ccc(C)cc2)cn1

>  <MIC>
> 125 µM

$$$$
>  <SMILES TEXT>
CCCNc1cnc(C(=O)Nc2cccc(C(F)(F)F)c2)cn1

>  <MIC>
> 125 µM

$$$$
>  <SMILES TEXT>
CCCCCCCCNc1cnc(C(=O)Nc2cccc(O)c2)cn1

>  <MIC>
> 125 µM

$$$$
>  <SMILES TEXT>
CCCCCCCNc1cnc(C(=O)Nc2cccc(C(F)(F)F)c2)cn1

>  <MIC>
> 500 µM

$$$$
>  <SMILES TEXT>
CCCCCCNc1cnc(C(=O)Nc2ccc(CC)cc2)cn1

>  <MIC>
> 125 µM

$$$$
>  <SMILES TEXT>
CCCCCCCCNc1cnc(C(=O)Nc2ccc(C)cc2)cn1

>  <MIC>
> 125 µM

$$$$
>  <SMILES TEXT>
CCCCCNc1cnc(C(=O)Nc2ccc(C)cc2)cn1

>  <MIC>
> 125 µM

$$$$
>  <SMILES TEXT>
CCCCCCNc1cnc(C(=O)Nc2ccc(O)cc2)cn1

>  <MIC>
> 500 µM

$$$$
>  <SMILES TEXT>
CCCCCCCNc1cnc(C(=O)Nc2ccc(O)cc2)cn1

>  <MIC>
> 250 µM

$$$$

Provide measured MIC value, entry: "CCCCCCCNc1cnc(C(=O)Nc2ccc(CC)cc2)cn1"
> 125 µM

Using the record for "CCCCCCCCNc1cnc(C(=O)Nc2cccc(C(F)(F)F)c2)cn1" , state its measured MIC.
> 500 µM

Give a short answer stating reported MIC for "CCCCNc1cnc(C(=O)Nc2cccc(O)c2)cn1" .
> 125 µM

Quickly give me recorded MIC for "CCCNc1cnc(C(=O)Nc2ccc(CC)cc2)cn1"
> 125 µM

Tell me MIC reported for "CCCNc1cnc(C(=O)Nc2ccc(O)cc2)cn1"
> 500 µM

Give MIC for "CCCCCNc1cnc(C(=O)Nc2ccc(O)cc2)cn1"
> 125 µM

Specify reported MIC for the compound shown: "CCCCNc1cnc(C(=O)Nc2cccc(C(F)(F)F)c2)cn1"
> 125 µM

Entry "CCCCCCCNc1cnc(C(=O)Nc2ccc(C)cc2)cn1" needs its MIC filled in; supply it.
> 125 µM

Look up MIC of "CCCCCCNc1cnc(C(=O)Nc2cccc(C(F)(F)F)c2)cn1" and report it.
> 500 µM
